- system.tested: Cytochrome P450 2C9 (Homo sapiens)
- measurement.protocol: Cytochrome panel assay with activity outcomes
- setup.conditions: recombinant CYP, pro-luciferin dealkylation, luminescence, p450-cyp2c9; series mostly up to 57.1 µM
Hit rate of the full screen: of about 16,000 compounds, about 4,000 (25%) were called active. Not shown: some 26% with an inconclusive outcome. Calls come from the whole dose curve; as a rule, active = well fitted curve in the direction sought with a large enough effect; inconclusive = small, poorly fitted or top-dose-only effect, or effect the other way; inactive = no such curve, though single readings can be large or run the other way. Only a sample is shown. Peptide text beside a SMILES is read from it. * marks the point of attachment. Cbz = O=C(OCc1ccccc1)*
Outcome codes: active, inactive

compound	system.tested	label.value
Cc1ccccc1NS(=O)(=O)c1ccc2[nH]cc(C(=O)NCCCN3CCOCC3)c(=O)c2c1	Cytochrome P450 2C9 (Homo sapiens)	active
COc1cccc(C2=NOC(C(=O)NCCN3CCOCC3)C2)c1 (stereo not given)	Cytochrome P450 2C9 (Homo sapiens)	inactive
Cc1ccc(N=CC2=C(O)CC(c3ccco3)CC2=O)cc1 (stereo not given)	Cytochrome P450 2C9 (Homo sapiens)	active
CCOC(=O)c1c(N2C(=O)Nc3cc(Cl)c(Cl)cc3N2O)sc2c1CCCCC2	Cytochrome P450 2C9 (Homo sapiens)	active
COc1ccc(NC(=O)N2CC[C@@]3(CCCN(C(=O)c4cnccn4)C3)C2)cc1	Cytochrome P450 2C9 (Homo sapiens)	inactive
C=CCn1c(SCc2ccccc2)nc2scc(-c3ccc(C)o3)c2c1=O	Cytochrome P450 2C9 (Homo sapiens)	inactive
COc1ccc(C2N(c3ccccn3)C(=O)C3CCCN32)c(OC)c1 (stereo not given)	Cytochrome P450 2C9 (Homo sapiens)	inactive
COc1ccc(S(=O)(=O)Nc2ccc(S(=O)(=O)N3CCCCC3)cc2)cc1C	Cytochrome P450 2C9 (Homo sapiens)	active
Cc1ccc(-c2cc(-c3nnc(SCC(=O)NC(C)C(C)C)n3N)c3ccccc3n2)cc1 (stereo not given)	Cytochrome P450 2C9 (Homo sapiens)	active
Cc1nnc(SCC(=O)NCC2CCCCC2)n(N)c1=O	Cytochrome P450 2C9 (Homo sapiens)	inactive
COC(=O)C(CC(C)C)NC(=O)C(N)Cc1ccccc1 (stereo not drawn) (H-Phe-Leu-OMe; configuration not given here)	Cytochrome P450 2C9 (Homo sapiens)	inactive
CC(C)C12CN3CC(C(C)C)(CN(C1)C3c1ccco1)C2=O (stereo not given)	Cytochrome P450 2C9 (Homo sapiens)	inactive
CC1(C)CC(=O)C2=C(C1)N(Cc1ccccc1)C(=O)C2(O)C(F)(F)F (stereo not given)	Cytochrome P450 2C9 (Homo sapiens)	inactive
CCC(=O)N(Cc1ccco1)c1nc(-c2ccccc2)cs1	Cytochrome P450 2C9 (Homo sapiens)	active
COc1cccc([C@H]2Oc3ccc(OC)cc3/C(=N\O[C@@H](C)c3cn([C@H](CO)Cc4ccccc4)nn3)[C@@H]2O)c1	Cytochrome P450 2C9 (Homo sapiens)	active
COc1ccc(S(=O)(=O)N2CCCCCC2)cc1N(C)S(=O)(=O)c1ccc(Cl)cc1	Cytochrome P450 2C9 (Homo sapiens)	active
CCC(=O)O[C@@]1(C(=O)SCF)[C@@H](C)C[C@H]2[C@@H]3C[C@@H](F)C4=CC(=O)C=C[C@@]4(C)[C@]3(F)[C@@H](O)C[C@]21C	Cytochrome P450 2C9 (Homo sapiens)	inactive
C=CCn1c(SCc2ccc(C(=O)Nc3ccccc3)cc2)nnc1-c1ccccc1	Cytochrome P450 2C9 (Homo sapiens)	active
CCOc1[nH]n(-c2ccccc2)c(=O)c1C=Nc1ccc(Cl)cc1	Cytochrome P450 2C9 (Homo sapiens)	inactive
O=C1[C@@H]2C=CC=CC2=NC(=S)N1CCN1CCC(=C(c2ccc(F)cc2)c2ccc(F)cc2)CC1	Cytochrome P450 2C9 (Homo sapiens)	active
CC(=O)ON(C(C)=O)S(=O)(=O)c1ccc(Cl)cc1	Cytochrome P450 2C9 (Homo sapiens)	inactive
CCOC(=O)C1CCCN(C(=O)CCCOc2cc(=O)n(C)c3ccccc23)C1 (stereo not given)	Cytochrome P450 2C9 (Homo sapiens)	inactive
S=C1NC2=C(C(c3ccc(Br)cc3)N1)N1CCC2CC1 (stereo not given)	Cytochrome P450 2C9 (Homo sapiens)	active
CCCCN1C(=O)C(NC(=O)C2CC2)(C(F)(F)F)C2=C1CC(C)(C)CC2=O (stereo not given)	Cytochrome P450 2C9 (Homo sapiens)	active
CC1CCN(C(=O)CN(C)S(=O)(=O)c2cccc3nsnc23)CC1	Cytochrome P450 2C9 (Homo sapiens)	inactive
COc1ccc(N2C(=O)c3ccccc3NC2c2ccc(OC)c(CSc3ccccn3)c2)cc1 (stereo not given)	Cytochrome P450 2C9 (Homo sapiens)	active
COc1ccc2c(c1)c(CC(=O)OCC(=O)O)c(C)n2C(=O)c1ccc(Cl)cc1	Cytochrome P450 2C9 (Homo sapiens)	inactive
Cc1sc2ncn(CC(=O)NCCCC(=O)N3CCN(c4ncccn4)CC3)c(=O)c2c1C	Cytochrome P450 2C9 (Homo sapiens)	active
O=S(=O)(c1ccc(Cl)cc1)c1cnc(-c2cccnc2)nc1-c1ccccc1	Cytochrome P450 2C9 (Homo sapiens)	inactive
CN1CCN(S(=O)(=O)c2ccc3[nH]cc(C(=O)O)c(=O)c3c2)CC1	Cytochrome P450 2C9 (Homo sapiens)	inactive
CN(CC(=O)Nc1ccc(F)c(F)c1)S(=O)(=O)c1cccc2nsnc12	Cytochrome P450 2C9 (Homo sapiens)	active
NC(=O)c1ncn([C@@H]2O[C@@H](CO)[C@@H](O)[C@H]2O)c1O	Cytochrome P450 2C9 (Homo sapiens)	inactive
OC(COc1ccc(OCC(O)CN2CCCCCC2)cc1)CN1CCCCCC1 (stereo not given)	Cytochrome P450 2C9 (Homo sapiens)	inactive
C=CCn1c(SCC)nc2sc3c(c2c1=O)CCc1ccccc1-3	Cytochrome P450 2C9 (Homo sapiens)	active
CCc1cccc2c(-c3ccccc3)c3c(nc12)OCC3	Cytochrome P450 2C9 (Homo sapiens)	active
COc1ccc(NS(=O)(=O)c2ccc(I)cc2)cc1N1CCN(C)CC1	Cytochrome P450 2C9 (Homo sapiens)	inactive
COC(=O)CCC(NC(=O)OCc1ccccc1)C(=O)NC(CC(C)C)C(=O)OC (stereo not given) (Cbz-Glu(OMe)-Leu-OMe; configuration not given here)	Cytochrome P450 2C9 (Homo sapiens)	active
CCn1c(SCc2ccc(C(=O)Nc3nccs3)cc2)nnc1-c1ccc(NC(C)=O)cc1	Cytochrome P450 2C9 (Homo sapiens)	active
Cc1ccccc1NS(=O)(=O)c1ccc2[nH]cc(C(=O)N(C)Cc3ccco3)c(=O)c2c1	Cytochrome P450 2C9 (Homo sapiens)	active
CCC(CC)C(=O)c1c[nH]c(C(=O)NCCCN2CCOCC2)c1	Cytochrome P450 2C9 (Homo sapiens)	inactive
